The compounds listed here are annotated with their mean cell size.
test system: Saccharomyces cerevisiae BY4741 SeMeCo community; assay: mean cell size (pixel area) (pixels); higher = larger cells; settings: 10 µM; 24 h; SM minimal medium
Counter-ions that a name gives are not always drawn.
Quantity Kind: mean cell size

Compound	Meas Value
COc1ccccc1N1CCN(CCCNc2cc(=O)n(C)c(=O)n2C)CC1 [Urapidil HCl]	12.5
NC(=O)OCC(COC(N)=O)c1ccccc1 [Felbamate]	12.3
COc1cccc(-c2c(C)n(Cc3c(F)cccc3C(F)(F)F)c(=O)n(C[C@H](NCCCC(=O)O)c3ccccc3)c2=O)c1F [Elagolix Sodium]	12.5
COCCOC(=O)C1=C(C)NC(C)=C(C(=O)OC(C)C)C1c1cccc([N+](=O)[O-])c1 (configuration not stated) [Nimodipine]	12.3
C[C@]12CC[C@@H]3c4ccc(OS(=O)(=O)O)cc4CC[C@H]3[C@@H]1CCC2=O [Estropipate]	12.2
NC(=O)c1ncn([C@@H]2O[C@H](CO)[C@@H](O)[C@H]2O)n1 [Ribavirin]	12.5
CO[C@H]1O[C@@H]2O[C@@]3(C)CC[C@H]4[C@H](C)CC[C@@H]([C@H]1C)[C@@]24OO3 [Artemether]	12
O=C1NC(=O)C(c2ccccc2)(c2ccccc2)N1 [Phenytoin]	12.4
CC(C)n1c(/C=C/C(O)CC(O)CC(=O)O)c(-c2ccc(F)cc2)c2ccccc21 (configuration not stated) [Fluvastatin Sodium]	12.1
C[C@@H](O)[C@H]1C(=O)N2C(C(=O)O)=C(SCCNC=N)C[C@H]12 [Imipenem]	12.3
Cc1cc(C)nc(NS(=O)(=O)c2ccc(N)cc2)n1 [Sulfamethazine Sodium Salt]	12.3
CCc1cc(C(N)=S)ccn1 [Ethionamide]	12.4
COc1ccc2cc3[n+](cc2c1OC)CCc1cc2c(cc1-3)OCO2 [Berberine Sulfate]	12.3
Cc1nnc(NS(=O)(=O)c2ccc(N)cc2)s1 [Sulfamethizole]	12.3
CO[C@H]1C[C@@H]2CC[C@@H](C)[C@@](O)(O2)C(=O)C(=O)N2CCCC[C@H]2C(=O)O[C@H]([C@H](C)C[C@@H]2CC[C@@H](O)[C@H](OC)C2)CC(=O)[C@H](C)/C=C(\C)[C@@H](O)[C@@H](OC)C(=O)[C@H](C)C[C@H](C)/C=C/C=C/C=C/1C [Rapamycin (Sirolimus)]	14.2
CCCCCCCCCCCCCCCCCCOP(=O)([O-])OC1CC[N+](C)(C)CC1 [Perifosine (KRX-0401)]	9.8
N=C(N)NS(=O)(=O)c1ccc(N)cc1 [Sulfaguanidine]	12.3
C[C@H]1c2cccc(O)c2C(=O)C2=C(O)[C@]3(O)C(=O)C(C(N)=O)=C(O)[C@@H](N(C)C)[C@@H]3[C@@H](O)[C@@H]21 [Doxycycline]	12.1
Oc1c(I)cc(Cl)c2cccnc12 [Clioquinol]	13.1
CCOC(=O)C1=C(COCCN)NC(C)=C(C(=O)OC)C1c1ccccc1Cl (configuration not stated) [Amlodipine]	13
CN[C@@H]1[C@H](O)[C@H](NC)[C@H]2O[C@@]3(O)C(=O)C[C@@H](C)O[C@H]3O[C@@H]2[C@H]1O [Spectinomycin 2HCl]	12.6
Nc1ccc(S(=O)(=O)Nc2nccs2)cc1 [Sulfathiazole]	12.4
O=C(Nc1ccc(Oc2ccc(Cl)cc2)c(Cl)c1)c1cc(I)cc(I)c1O [Rafoxanide]	12.2
CCCCCCCCN=C(N)NC(N)=NCc1ccc(Cl)c(Cl)c1 [Olanexidine Hydrochloride semihydrate]	9.82
O=C(O)CCC(=O)Nc1ccc(S(=O)(=O)Nc2nccs2)cc1 [Succinylsulfathiazole]	12.5
Cc1ncc([N+](=O)[O-])n1CC(O)CCl (configuration not stated) [Ornidazole]	12.5
CN(C)CCn1nnnc1SCC1=C(C(=O)O)N2C(=O)[C@@H](NC(=O)Cc3csc(N)n3)[C@H]2SC1 [Cefotiam hydrochloride]	12.2
CCOC(=O)C1=C[C@@H](OC(CC)CC)[C@H](NC(C)=O)[C@@H](N)C1 [Oseltamivir Phosphate]	12.4
NC(=O)N/N=C/c1ccc([N+](=O)[O-])o1 [Nitrofural]	12.8
Cc1cccc(C)c1OCC(C)N (configuration not stated) [Mexiletine HCl]	12.3
C[C@@H]1C/C=C/C=C/C=C/C=C/[C@H](O[C@@H]2O[C@H](C)[C@@H](O)[C@H](N)[C@@H]2O)C[C@@H]2O[C@](O)(C[C@@H](O)C[C@H]3O[C@@H]3/C=C/C(=O)O1)C[C@H](O)[C@H]2C(=O)O [Natamycin]	12.3
CCOC(=O)C1=C(COCCN)NC(C)=C(C(=O)OC)C1c1ccccc1Cl (configuration not stated) [Amlodipine Besylate]	12.6

This collection of values is drawn from the supplement of paper PMC8975748.
